# measurement-protocol: Cytotoxicity against human HCT15 cells after 48 hrs by sulforhodamine B assay
# Format: functional, cell-based
# condition-context: HCT-15, 48 h
Parameter pIC50: see the listing below.
To interpret pIC50, take it as minus log10 of a concentration measured in moles per litre.

In the examples that follow, each entry is paired with its recorded pIC50.
INSERT INTO results (smiles, test_result) VALUES
  ('C=C1C(=O)O[C@@H]2[C@H]1CC[C@H](C)[C@]1(O)[C@@H](n3cc(CNc4ccccc4C)nn3)CC(=O)[C@@]21C', 5.07),
  ('C=C1C(=O)O[C@@H]2[C@H]1CC[C@H](C)[C@]1(O)[C@@H](n3cc(CNc4ccc(F)cc4)nn3)CC(=O)[C@@]21C', 5.19),
  ('O=c1[nH]cc(F)c(=O)[nH]1', 5.35),
  ('C=C1C(=O)O[C@@H]2[C@H]1CC[C@H](C)[C@]1(O)[C@@H](n3cc(CNc4ccccc4F)nn3)CC(=O)[C@@]21C', 4.00),
  ('C=C1C(=O)O[C@@H]2[C@H]1CC[C@H](C)[C@]1(O)[C@@H](n3cc(COc4ccc(C)cc4)nn3)CC(=O)[C@@]21C', 4.41);

Then this compound:
q: Please report pIC50 for the following compound: C=C1C(=O)O[C@@H]2[C@H]1CC[C@H](C)[C@]1(O)[C@@H](n3cc(CCC)nn3)CC(=O)[C@@]21C
a: 5.26

* * *

# System: A549
# measurement-protocol: Cytotoxicity against human A549 cells after 48 hrs by sulforhodamine B assay
# Format: functional, cell-based
# condition-context: A549, 48 h
property: IC50 (µM)
Record the value in µM, omitting the unit from your answer.

INSERT INTO measurements (molecule, property, test_result) VALUES
  ('C=C1C(=O)O[C@@H]2[C@H]1CC[C@H](C)[C@]1(O)[C@@H](n3cc(CNc4ccc(COC(F)(F)F)cc4)nn3)CC(=O)[C@@]21C', 'IC50', 23),
  ('C=C1C(=O)O[C@@H]2[C@H]1CC[C@H](C)[C@]1(O)[C@@H](n3cc(CNc4ccccc4Br)nn3)CC(=O)[C@@]21C', 'IC50', 100),
  ('C=C1C(=O)O[C@@H]2[C@H]1CC[C@H](C)[C@]1(O)[C@@H](n3cc(COc4ccccc4Cl)nn3)CC(=O)[C@@]21C', 'IC50', 4.2),
  ('C=C1C(=O)O[C@@H]2[C@H]1CC[C@H](C)[C@]1(O)[C@@H](n3cc(COc4ccc(C)cc4)nn3)CC(=O)[C@@]21C', 'IC50', 21),
  ('C=C1C(=O)O[C@@H]2[C@H]1CC[C@H](C)[C@]1(O)C=CC(=O)[C@@]21C [PARTHENIN]', 'IC50', 37.6);

q: Please report IC50 for the following molecule: C=C1C(=O)O[C@@H]2[C@H]1CC[C@H](C)[C@]1(O)[C@@H](n3cc(COc4ccccc4C)nn3)CC(=O)[C@@]21C
a: 6.2

q: Please report IC50 for the following molecule: C=C1C(=O)O[C@@H]2[C@H]1CC[C@H](C)[C@]1(O)[C@@H](n3cc(CCC)nn3)CC(=O)[C@@]21C
a: 12

* * *

# measurement-protocol: Cytotoxicity against human HCT15 cells after 48 hrs by sulforhodamine B assay
# Type: functional, cell-based
# condition-context: HCT-15, 48 h
Parameter pIC50: see the listing below.
To interpret pIC50, take it as minus log10 of a concentration measured in moles per litre.

In the examples that follow, each entry is paired with its recorded pIC50.
INSERT INTO results (compound, test_result) VALUES
  ('C=C1C(=O)O[C@@H]2[C@H]1CC[C@H](C)[C@]1(O)[C@@H](n3cc(COc4ccccc4Br)nn3)CC(=O)[C@@]21C', 4.92),
  ('C=C1C(=O)O[C@@H]2[C@H]1CC[C@H](C)[C@]1(O)C=CC(=O)[C@@]21C [PARTHENIN]', 4.45),
  ('CO[C@@]12[C@H](COC(N)=O)C3=C(C(=O)C(C)=C(N)C3=O)N1C[C@@H]1N[C@@H]12 [MITOMYCIN]', 6.30);

q: Please report pIC50 for the following compound: C=C1C(=O)O[C@@H]2[C@H]1CC[C@H](C)[C@]1(O)[C@@H](n3cc(CNc4ccccc4OC)nn3)CC(=O)[C@@]21C
a: 4.82

q: Please report pIC50 for the following compound: C=C1C(=O)O[C@@H]2[C@H]1CC[C@H](C)[C@]1(O)[C@@H](n3cc(CNc4ccc(COC(F)(F)F)cc4)nn3)CC(=O)[C@@]21C
a: 4.00

q: Please report pIC50 for the following compound: C=C1C(=O)O[C@@H]2[C@H]1CC[C@H](C)[C@]1(O)[C@@H](n3cc(COc4ccc(Br)cc4)nn3)CC(=O)[C@@]21C
a: 4.32

q: Please report pIC50 for the following compound: C=C1C(=O)O[C@@H]2[C@H]1CC[C@H](C)[C@]1(O)[C@@H](n3cc(COc4ccc(C(F)(F)F)cc4)nn3)CC(=O)[C@@]21C
a: 4.00

q: Please report pIC50 for the following compound: C=C1C(=O)O[C@@H]2[C@H]1CC[C@H](C)[C@]1(O)[C@@H](n3cc(CNc4ccccc4Br)nn3)CC(=O)[C@@]21C
a: 4.70

Source of measurements: ChEMBL document CHEMBL3286221
